Value source: patent US5530157A

Tested on: polymorphonuclear neutrophils
method: Adherence of PMN to serum coated wells, PAF
Assay type: cell-based
test.context: Homo sapiens, Polymorphonuclear neutrophil, 10 min, PAF 1 μM, read-out: IC50 to inhibit adhesion, PAF serum
quantity: pIC50
Please report pIC50 as the negative decimal logarithm of the molar concentration, giving only the number.

Looking up O=C(O)c1ccc(C=Cc2ccccc2Oc2ccccc2)cc1 , I see its pIC50 listed as 6.07

The recorded pIC50 for entry O=C(O)c1ccc(/C=C/c2ccccc2-c2ccc3ccccc3c2)cc1 equals 5.93

The compound listed as O=C(O)c1ccc(/C=C/c2ccccc2-c2ccccc2)cc1 [NPC 18730, 4-[2-(biphenyl)-E-ethenyl]benzoic acid] shows pIC50 equal to 5.62

Value of measured pIC50 for the entry O=C(O)c1ccc(CCc2ccccc2-c2ccccc2)cc1 [NPC 18731, 4-[2-(biphenyl)ethyl]benzoic acid] : 5.19

Per the records, this compound ( O=C(O)c1ccc(/C=C/c2ccccc2-c2ccc(Cl)c(Cl)c2)cc1 ) has pIC50 equal to 6.39

Summary for this compound, O=C(O)c1ccc(/C=C/c2ccccc2-c2cc3ccccc3o2)cc1 : pIC50 is 6.19

====

Please provide measured IC50 for the entries that follow.
Test system: neutrophils
method: Elastase release from neutrophils, fMLP
Type: cell-based
test.context: Homo sapiens, Neutrophil; fMLP 200 nM, cytochalasin b; read-out: IC50 to inhibit elastase release, fMLP/ER
Kindly answer with a numeric value in µM, unit omitted.

For this compound ( O=C(O)c1ccc(C=Cc2ccccc2Oc2ccccc2)cc1 ), measured IC50 is 7.5

IC50 measured on O=C(O)c1ccc(/C=C/c2ccccc2-c2ccccc2)cc1 [NPC 18730, 4-[2-(biphenyl)-E-ethenyl]benzoic acid] = 6.25

Short answer for O=C(O)c1ccc(CCc2ccccc2-c2ccccc2)cc1 [NPC 18731, 4-[2-(biphenyl)ethyl]benzoic acid] : IC50 was 8.7

Briefly, IC50 measured for O=C(O)c1ccc(/C=C/c2ccccc2-c2ccc(Cl)c(Cl)c2)cc1 : 1.2

====

Can you tell me % Inhibition of neutrophil accumulation for the items I'm about to list?
Test system: neutrophil accumulation in thioglycollate-induced peritonitis
method: Neutrophil accumulation in thioglycollate-induced peritonitis in the mouse
Format: in vivo, Male CF-1 mice
test.context: mouse, i.v., 30 mg/kg, 4 hrs
Quick note: unit goes after the number.

Record summary for O=C(O)c1ccc(/C=C/c2ccccc2-c2ccc(Cl)c(Cl)c2)cc1 [NPC 18818] : reported % Inhibition of neutrophil accumulation = 52%

According to the records, this compound O=C(O)c1ccc(/C=C/c2ccccc2-c2ccccc2)cc1 [NPC 18730, 4-[2-(biphenyl)-E-ethenyl]benzoic acid] displays % Inhibition of neutrophil accumulation of 48%

According to the records, this compound O=C(O)c1ccc(C=Cc2ccccc2Oc2ccccc2)cc1 [NPC 18801, 2'-phenoxy-4-stilbenecarboxylic acid] displays % Inhibition of neutrophil accumulation of 65%

// sample O=C(O)c1ccc(CCc2ccccc2-c2ccccc2)cc1 [NPC 18731, 4-[2-(biphenyl)ethyl]benzoic acid] , its % Inhibition of neutrophil accumulation was 59%

Record summary for O=C(O)c1ccc(/C=C/c2ccccc2-c2ccc3ccccc3c2)cc1 [NPC 18812] : reported % Inhibition of neutrophil accumulation = 71%

====

Tested on: neutrophil accumulation in thioglycollate-induced peritonitis
method: Neutrophil accumulation in thioglycollate-induced peritonitis in the mouse
Type: in vivo, Male CF-1 mice
test.context: mouse, i.v., 3 mg/kg, 4 hrs
quantity: % Inhibition of neutrophil accumulation (%)
Record the value in %, omitting the unit from your answer.

The measured % Inhibition of neutrophil accumulation associated with O=C(O)c1ccc(CCc2ccccc2-c2ccccc2)cc1 [NPC 18731, 4-[2-(biphenyl)ethyl]benzoic acid] reads 22

Record O=C(O)c1ccc(/C=C/c2ccccc2-c2ccc(Cl)c(Cl)c2)cc1 , field % Inhibition of neutrophil accumulation: 35

Note to self: % Inhibition of neutrophil accumulation recorded for O=C(O)c1ccc(/C=C/c2ccccc2-c2ccc3ccccc3c2)cc1 was 12

% Inhibition of neutrophil accumulation reported for this compound O=C(O)c1ccc(/C=C/c2ccccc2-c2ccccc2)cc1 [NPC 18730, 4-[2-(biphenyl)-E-ethenyl]benzoic acid] : 67

% Inhibition of neutrophil accumulation reported for this compound O=C(O)c1ccc(C=Cc2ccccc2Oc2ccccc2)cc1 : 36

====

Tested on: human umbilical vein endothelial cells
method: INF-γ HUVEC assay: adherence of PMN to human umbilical vein endothelial cells
Assay type: cell-based
test.context: HUVECs with INF-γ 1 unit/mL 20 hrs, PMN activated with 50 ng/mL TNF, read-out: IC50 to inhibit adhesion, IFN-γ HUVECS
quantity: IC50 (µM)
Write the value in µM as a bare number.

IC50 recorded for this compound, O=C(O)c1ccc(/C=C/c2ccccc2-c2ccccc2)cc1 [NPC 18730, 4-[2-(biphenyl)-E-ethenyl]benzoic acid] , is 25.7

O=C(O)c1ccc(CCc2ccccc2-c2ccccc2)cc1 [NPC 18731, 4-[2-(biphenyl)ethyl]benzoic acid] has a reported IC50 of 28

Lab note: measured IC50 of O=C(O)c1ccc(/C=C/c2ccccc2-c2ccc(Cl)c(Cl)c2)cc1 was 30

O=C(O)c1ccc(C=Cc2ccccc2Oc2ccccc2)cc1 has a reported IC50 of 52.4

For record O=C(O)c1ccc(/C=C/c2ccccc2-c2ccc3ccccc3c2)cc1 the listed IC50 is 14.5

====

Tested on: neutrophil accumulation in thioglycollate-induced peritonitis
method: Neutrophil accumulation in thioglycollate-induced peritonitis in the mouse
Assay type: in vivo, Male CF-1 mice
test.context: Neutrophil, iv; mouse, i.v., thioglycollate-induced peritonitis, 4 hrs; read-out: ED50
I'd appreciate it if you could supply ED50 values for the items below.
Expressed in mg/kg, but write only the number.

Just so you know, measured ED50 for O=C(O)c1ccc(CCc2ccccc2-c2ccccc2)cc1 [NPC 18731, 4-[2-(biphenyl)ethyl]benzoic acid] came out at 4

get_value(item= O=C(O)c1ccc(/C=C/c2ccccc2-c2ccc3ccccc3c2)cc1 [NPC 18812] , readout=ED50) returns 7
